- Test system: Caspase 9 (SKOV-3)
- TEST_METHOD_NOTES: Induction of caspase 9 activity (CaspaseGlo), SKOV-3
- Format: cell-based
- TEST_PARAMETERS: Homo sapiens, SK-OV-3
Counter-ions that a name gives are not always drawn.
MEASURED_METRIC: EC50

Solved entries (count: 3):
CC[C@H](NC)C(=O)N[C@H]1CCS[C@H]2CC(C)(C)[C@@H](C(=O)N[C@@H]3CCCc4ccccc43)N2C1=O.Cl [Compound 79, hydrochloride]	1 to 10 nM
CN[C@@H](C)C(=O)N[C@H]1CCS[C@H]2CC3(CCCC3)[C@@H](C(=O)N[C@@H]3CCCc4ccccc43)N2C1=O [Compound 80, hydrochloride]	< 1 nM
CN[C@@H](C)C(=O)N[C@@H]1C(=O)N2[C@H](CC(C)(C)[C@H]2C(=O)N[C@@H]2CCCc3ccccc32)OC2CCCCC21 (single isomer, unassigned) [Compound 65, hydrochloride]	1 to 10 nM

// next entry
Task: What measured EC50 goes with CCC1(CC)C[C@@H]2SCC[C@H](NC(=O)[C@H](C)NC)C(=O)N2C1C(=O)N[C@@H]1CCCc2ccccc21 (mixture of isomers) [Compound 38, hydrochloride] ?
Result: 1 to 10 nM

====

- Test system: SKOV-3 cancer cell lines
- TEST_METHOD_NOTES: SKOV-3 cell viability after treatment with 10 μM test compound
- Assay type: cell-based
- TEST_PARAMETERS: 10 micromolar test compound, hydrochloride
Where a name gives a salt, the structure may show the parent alone.
MEASURED_METRIC: % viability after treatment with 10 micromolar of test compound (SKOV-3 cells)

C=CCC1(CC=C)C[C@@H]2OCC[C@H](NC(=O)[C@H](C)NC)C(=O)N2[C@@H]1C(=O)NC(c1ccccc1)c1ccccc1 [Compound 51, hydrochloride]	B (B=26-50% viability)
CN[C@@H](C)C(=O)N[C@H]1CCO[C@H]2CC(CCc3ccccc3)(CCc3ccccc3)[C@@H](C(=O)N[C@@H]3CCCc4ccccc43)N2C1=O [Compound 24, hydrochloride]	B (B=26-50% viability)

====

- Tested on: SKOV-3 cancer cell lines
- TEST_METHOD_NOTES: SKOV-3 cell viability after treatment with 10 μM test compound
- Format: cell-based
- TEST_PARAMETERS: 10 micromolar test compound, hydrochloride
Where a name gives a salt, the structure may show the parent alone.
MEASURED_METRIC: % viability after treatment with 10 micromolar of test compound (SKOV-3 cells)

CN[C@@H](C)C(=O)N[C@H]1CCS[C@H]2CC(CCc3ccccc3)[C@@H](C(=O)N[C@@H]3CCCc4ccccc43)N2C1=O (stereo partly shown) [Compound 44, hydrochloride]	A (A=0-25% viability)
C=CCC1C[C@@H]2SCC[C@H](NC(=O)[C@H](C)NC)C(=O)N2[C@@H]1C(=O)N[C@@H]1CCCc2ccccc21 (stereo partly shown) [Compound 32, hydrochloride]	A (A=0-25% viability)

====

- Tested on: SKOV-3 cancer cell lines
- TEST_METHOD_NOTES: SKOV-3 cell viability after treatment with 10 μM test compound
- Assay type: cell-based
- TEST_PARAMETERS: 10 micromolar test compound, hydrochloride
Where a name gives a salt, the structure may show the parent alone.
MEASURED_METRIC: % viability after treatment with 10 micromolar of test compound (SKOV-3 cells)

A selection of reference data follows.
CCC1(CC)C[C@@H]2SCC[C@H](NC(=O)[C@H](C)NC)C(=O)N2C1C(=O)N[C@@H]1CCCc2ccccc21 (mixture of isomers) [Compound 38, hydrochloride]	A (A=0-25% viability)
CCC1(CC)C[C@@H]2OCC[C@H](NC(=O)[C@H](C)NC)C(=O)N2[C@@H]1C(=O)NC(c1ccccc1)c1ccccc1 [Compound 59, hydrochloride]	A (A=0-25% viability)
CN[C@@H](C)C(=O)N[C@H]1CCO[C@H]2CC(C(C)C)(C(C)C)[C@@H](C(=O)NC(c3ccccc3)c3ccccc3)N2C1=O [Compound 61, hydrochloride]	B (B=26-50% viability)
CCC1(CC)C[C@@H]2SCC[C@H](NC(=O)[C@H](C)NC)C(=O)N2[C@@H]1C(=O)N[C@@H]1CCCc2ccccc21 [Compound 35, hydrochloride]	A (A=0-25% viability)

Task: Please give the measured % viability after treatment with 10 micromolar of test compound (SKOV-3 cells) for this compound: CCC1(CC)C[C@@H]2SCC[C@H](NC(=O)[C@H](C)NC)C(=O)N2[C@@H]1C(=O)N[C@@H]1CCCc2ccccc21 [Compound 39, hydrochloride]
Result: B (B=26-50% viability)

====

- Test system: OVCAR-4
- TEST_METHOD_NOTES: Cell viability (CellTiterGlo), OVCAR-4
- Format: cell-based
- TEST_PARAMETERS: Homo sapiens
pIC50: −log10 of the molar value. Counter-ions that a name gives are not always drawn.
MEASURED_METRIC: pIC50

CN[C@@H](C)C(=O)N[C@H]1CCO[C@H]2CC(C)(C)[C@@H](C(=O)NCCC(C)C)N2C1=O [Compound 70, hydrochloride]	< 6.00
CN[C@@H](C)C(=O)N[C@H]1CCS[C@H]2CC(C(C)C)(C(C)C)[C@@H](C(=O)N[C@@H]3CCCc4ccccc43)N2C1=O [Compound 41, hydrochloride]	< 6.00
CN[C@@H](C)C(=O)N[C@H]1Cc2c([nH]c3ccccc23)[C@H]2CC(C)(C)C(C(=O)N[C@@H]3CCCc4ccccc43)N2C1=O (stereo in doubt) [Compound 2, hydrochloride]	< 6.00
CCC1C[C@@H]2SCC[C@H](NC(=O)[C@H](C)NC)C(=O)N2[C@@H]1C(=O)N[C@@H]1CCCc2ccccc21 (some centres unmarked) [Compound 36, hydrochloride]	6.00 to 7.00

# context switch: different compound, same pIC50
Task: For the record CN[C@@H](C)C(=O)N[C@H]1CCO[C@H]2CC(C)(C)[C@@H](C(=O)N[C@@H]3CCSc4ccccc43)N2C1=O [Compound 69, hydrochloride] , what value of pIC50 is listed for OVCAR-4?
Result: 6.00 to 7.00

====

- Test system: Caspase 9 (SKOV-3)
- TEST_METHOD_NOTES: Induction of caspase 9 activity (CaspaseGlo), SKOV-3
- Assay type: cell-based
- TEST_PARAMETERS: Homo sapiens, SK-OV-3
Where a name gives a salt, the structure may show the parent alone.
Listed here are compounds together with their documented EC50.

Sample records with EC50:
CN[C@@H](C)C(=O)N[C@H]1CCOC2CC3(CC=CC3)C(C(=O)N[C@@H]3CCCc4ccccc43)N2C1=O (stereo partly drawn) [Compound 81, hydrochloride]	1 to 10 nM
CN[C@@H](C)C(=O)N[C@H]1CCOC2CC3(CCCC3)C(C(=O)N[C@@H]3CCCc4ccccc43)N2C1=O (stereo partly drawn) [Compound 82, hydrochloride]	1 to 10 nM

Please turn your attention to the following entry.
Task: Hi! What's the reported EC50 for CN[C@@H](C)C(=O)N[C@H]1CCS[C@H]2CC(C)(C)C(C(=O)N[C@@H]3CCCc4ccccc43)N2C1=O (stereo partly drawn) [Compound A, hydrochloride] on Caspase 9 (SKOV-3)?
Result: < 1 nM

Where do these numbers come from? They come from patent US20230295181A1.
